Each entry below carries its recorded IC50.
Molecular target: T. cruzi proteasome (Trypanosoma cruzi, UniProt V5BU39+V5C017)
Sequence (V5BU39 entry or part of it): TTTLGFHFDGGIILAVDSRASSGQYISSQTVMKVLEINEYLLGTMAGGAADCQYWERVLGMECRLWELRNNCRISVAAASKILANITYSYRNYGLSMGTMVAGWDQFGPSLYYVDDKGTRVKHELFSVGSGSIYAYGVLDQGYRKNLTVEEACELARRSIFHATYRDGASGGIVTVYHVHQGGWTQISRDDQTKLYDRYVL
Sequence (V5C017 entry or part of it): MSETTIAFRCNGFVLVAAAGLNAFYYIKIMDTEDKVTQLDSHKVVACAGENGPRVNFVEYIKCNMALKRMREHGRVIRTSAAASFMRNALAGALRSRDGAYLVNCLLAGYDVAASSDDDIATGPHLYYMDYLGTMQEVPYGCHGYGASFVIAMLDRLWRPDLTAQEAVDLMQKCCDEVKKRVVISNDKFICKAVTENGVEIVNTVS
Test: T. cruzi proteasome assay (chymotrypsin-like activity, Suc-LLVY-Rho-110-DPro)
Details: T. cruzi Prot pIC50, mean of at least three independent replicates
recordedEndpoint: IC50 (nM)

1. CN(C(=O)c1cccc(NC(=O)c2ccc(=O)n(Cc3ccccc3)n2)c1)C1CC1 :: 20000
2. COc1ccc(Cn2nc(C(=O)Nc3ccc(F)c(C(=O)NC4CC4)c3)ccc2=O)cc1 :: 31.6
3. COc1ncc(Cn2nc(C(=O)Nc3ccc(F)c(C(=O)NC4CC4)c3)ccc2=O)cc1F :: 2510
4. COc1ccc(Cn2nc(C(=O)Nc3ccc(F)c(C(=O)N[C@H]4C[C@H](N5CCOCC5)C4)c3)ccc2=O)cc1F :: 7.94
5. COc1ccc(Cn2nc(C(=O)Nc3ccc(F)c(C(=O)N[C@H]4C[C@H](OC)C4)c3)ccc2=O)cc1F :: 6.31
6. COc1ccc(Cn2nc(C(=O)Nc3ccc(F)c(C(=O)N[C@H]4C[C@@H](N5CCOCC5)C4)c3)ccc2=O)cc1F :: 7.94

###

Target: T. cruzi proteasome (Trypanosoma cruzi, UniProt V5BU39+V5C017)
Experiment: T. cruzi proteasome assay (chymotrypsin-like activity, Suc-LLVY-Rho-110-DPro)
Settings: Tc Prot pIC50, individual replicate
recordedEndpoint: IC50 (nM)

1. COc1ccc(Cn2nc(C(=O)Nc3ccc(F)c(C(=O)N[C@H]4C[C@H](OC)C4)c3)ccc2=O)cc1F :: 6.31
2. COc1ccc(Cn2nc(C(=O)Nc3ccc(F)c(C(=O)NCCN4CCOCC4)c3)ccc2=O)cc1 :: 126
3. COc1ccc(Cn2nc(C(=O)Nc3ccc(F)c(C(=O)N[C@H]4C[C@@H](N5CCOCC5)C4)c3)ccc2=O)cc1F :: 6.31
4. COc1ccc(Cn2nc(C(=O)Nc3ccc(F)c(C(=O)N[C@H]4C[C@H](OC)C4)c3)ccc2=O)cc1 :: 31.6

###

Measured solubility at 24 h, listed per entry for reference.
Assay: Kinetic aqueous solubility (UHPLC, PBS pH 7.4)
Type: physicochemical
Conditions: phosphate buffered saline, UHPLC UV/MS
recordedEndpoint: solubility at 24 h (µM)

1) COc1ccc(Cn2nc(C(=O)Nc3ccc(F)c(C(=O)NCCN4CCOCC4)c3)ccc2=O)cc1 [Compound 21] :: 200
2) O=C(Nc1ccc(F)c(C(=O)NC2CC2)c1)c1ccc(=O)n(Cc2ccccc2)n1 [Compound 9] :: 218
3) O=C(NC1CC1)c1ccc(F)c(NC(=O)c2ccc(=O)n(Cc3ccccc3)n2)c1 [Compound 10] :: 1.5
4) O=C(Nc1ccc(F)c(C(=O)NC2CC2)c1)c1ccc(=O)n(Cc2ccc(Cl)c(F)c2)n1 [Compound 17] :: 21
5) COc1ccc(Cn2nc(C(=O)Nc3ccc(F)c(C(=O)NC4CC4)c3)ccc2=O)cc1 [Compound 12] :: 83

###

Test: Mouse microsomal intrinsic clearance
Type: in vitro ADME
Conditions: mouse liver microsomes, scaling 52.5 mg microsomal protein/g liver
Experimental: Mouse microsomal intrinsic clearance. This assay was conducted as previously described: J.; Reid, I. H.; Hill, A. P.; were prepared by adding a volume (5 µL) of the 10 mM solution to a volume (195 µL) of […]
# class assignment by measured Mouse CLi: lower level (below 3 mL/min/g), middle level (3 mL/min/g to below 7 mL/min/g), upper level (7 mL/min/g or more)

1. O=C(Nc1ccc(F)c(C(=O)NC2CC2)c1)c1ccc(=O)n(Cc2ccccc2)n1 :: middle level
2. COc1ccc(Cn2nc(C(=O)Nc3ccc(F)c(C(=O)NC4CC4)c3)ccc2=O)cc1 :: lower level
3. CN(C(=O)c1ccc(=O)n(Cc2ccccc2)n1)c1cccc(C(=O)NC2CC2)c1 :: upper level
4. COc1ccc(Cn2nc(C(=O)Nc3ccc(F)c(C(=O)NC4CC4)c3)ccc2=O)cc1Cl :: lower level
5. COc1ccc(Cn2nc(C(=O)Nc3ccc(F)c(C(=O)NCCN4CCOCC4)c3)ccc2=O)cc1 :: middle level
6. COc1cccc(Cn2nc(C(=O)Nc3ccc(F)c(C(=O)NC4CC4)c3)ccc2=O)c1 :: upper level
7. O=C(Nc1cccc(C(=O)NC2CC2)c1)c1ccc(=O)n(Cc2ccccc2)c1 :: lower level
8. CN(C(=O)c1cccc(NC(=O)c2ccc(=O)n(Cc3ccccc3)n2)c1)C1CC1 :: upper level
9. O=C(Nc1ccc(F)c(C(=O)NC2CC2)c1)c1ccc(=O)n(Cc2ccc(Cl)c(F)c2)n1 :: middle level
10. O=C(Nc1ccc(F)c(C(=O)NC2CC2)c1)c1ccc(=O)n(CC2CCCCC2)n1 :: upper level
11. COc1ccc(Cn2nc(C(=O)Nc3ccc(F)c(C(=O)NC4CC4)c3)ccc2=O)cc1C#N :: lower level
12. COc1ncc(Cn2nc(C(=O)Nc3ccc(F)c(C(=O)NC4CC4)c3)ccc2=O)cc1F :: middle level
13. O=C(NC1CC1)c1ccc(F)c(NC(=O)c2ccc(=O)n(Cc3ccccc3)n2)c1 :: middle level
14. O=C(Nc1ccc(F)c(-c2cn3nc(N4CCOCC4)cnc3n2)c1)N1CCCC1 :: lower level
